- SYSTEM UNDER TEST: monkey DLL3 on CHO-K1-cyno DLL3 cells (cynomolgus monkey)
- Sequence (chain, as listed by the source limits assumed): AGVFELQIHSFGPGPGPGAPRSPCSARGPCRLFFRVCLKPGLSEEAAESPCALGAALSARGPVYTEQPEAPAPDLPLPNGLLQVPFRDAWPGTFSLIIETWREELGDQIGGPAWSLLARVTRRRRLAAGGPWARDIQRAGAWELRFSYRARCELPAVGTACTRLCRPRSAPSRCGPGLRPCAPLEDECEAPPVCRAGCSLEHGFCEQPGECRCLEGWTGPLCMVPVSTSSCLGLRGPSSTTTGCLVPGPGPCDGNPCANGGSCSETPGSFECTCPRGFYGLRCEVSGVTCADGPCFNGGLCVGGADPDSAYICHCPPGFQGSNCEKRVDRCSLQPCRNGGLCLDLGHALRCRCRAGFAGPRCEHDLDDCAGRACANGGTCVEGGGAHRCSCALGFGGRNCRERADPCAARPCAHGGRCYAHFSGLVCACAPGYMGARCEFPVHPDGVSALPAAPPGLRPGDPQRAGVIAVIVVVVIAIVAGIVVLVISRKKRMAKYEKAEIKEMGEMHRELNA
- ASSAY PROCEDURE: FACS, CHO-K1-cyno DLL3 cells, 0.16 nM antibody
MEASURED ENDPOINT: MFI (MFI)
# unit: MFI | format: bare number

Solved entries (count: 2):
Hab015VL4VH1b-hFc (scFv, part only; not given: VL-VH linker and human IgG1 Fc, V domains shown, not shown: another chain or arm of the molecule; a dimerising Fc or GST; small tags and cut ends) VL: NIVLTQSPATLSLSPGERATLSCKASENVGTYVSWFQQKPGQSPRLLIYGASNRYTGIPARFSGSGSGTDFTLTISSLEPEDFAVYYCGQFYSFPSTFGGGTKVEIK VH: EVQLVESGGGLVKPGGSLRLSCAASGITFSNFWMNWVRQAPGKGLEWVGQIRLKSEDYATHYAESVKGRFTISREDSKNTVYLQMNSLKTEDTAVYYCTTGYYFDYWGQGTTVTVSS :: 1200
Hab008L3H5-hFc (scFv, part only; not given: scFv linker and human IgG1 Fc, V domains shown, not shown: another chain or arm of the molecule; a dimerising Fc or GST; small tags and cut ends) VL: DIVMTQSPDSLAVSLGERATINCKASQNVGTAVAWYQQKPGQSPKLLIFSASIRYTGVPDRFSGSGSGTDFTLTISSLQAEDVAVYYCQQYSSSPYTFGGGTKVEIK VH: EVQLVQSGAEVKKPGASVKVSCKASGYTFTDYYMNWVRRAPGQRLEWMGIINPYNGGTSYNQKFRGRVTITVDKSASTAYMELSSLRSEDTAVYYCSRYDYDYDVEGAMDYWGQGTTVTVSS :: 724

// moving on: another record for MFI
Summary for this binder, Hab015VL5VH5a-hFc (scFv, part only; not given: scFv linker and human IgG1 Fc, V domains shown, not shown: another chain or arm of the molecule; a dimerising Fc or GST; small tags and cut ends) VL: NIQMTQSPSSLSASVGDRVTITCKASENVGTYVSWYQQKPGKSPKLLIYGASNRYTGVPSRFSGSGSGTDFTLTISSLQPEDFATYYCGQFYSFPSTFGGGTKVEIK VH: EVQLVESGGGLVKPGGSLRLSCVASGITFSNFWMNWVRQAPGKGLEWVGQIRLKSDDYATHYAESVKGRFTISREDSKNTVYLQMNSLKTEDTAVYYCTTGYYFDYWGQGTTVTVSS : MFI is 1330
